# Tested on: Chenopodium album
# protocol_text: Test Example 3: herbicidal effect test by treatment of dry field farming soil (one day after seeding)
# Assay type: in vivo
# study_conditions: 120 g/10a active ingredient, evaluated 14 days after treatment
Hi, to clarify the labels: True covers herbicidal rate, Chenopodium album from 90% upward, False covers anything below 90%.

- molecule: "CCCCC(C)n1oc(=O)c(Cc2ccccc2N(S(=O)(=O)C(F)(F)F)S(=O)(=O)C(F)(F)F)c1C (stereo not shown)"
  tested_on: "Chenopodium album"
  assigned_category: "False"
- molecule: "Cc1c(Cc2cc(F)ccc2NS(=O)(=O)C(F)(F)F)c(=O)on1CC(C)C"
  tested_on: "Chenopodium album"
  assigned_category: "True"
- molecule: "CCOC(=O)N(c1ccccc1Cc1c(C)n(CC(C)CC)oc1=O)S(=O)(=O)C(F)(F)F (stereo not shown)"
  tested_on: "Chenopodium album"
  assigned_category: "False"
- molecule: "Cc1ccc(S(=O)(=O)N(c2ccccc2Cc2c(C)n(C(C)C)oc2=O)S(=O)(=O)C(F)(F)F)cc1"
  tested_on: "Chenopodium album"
  assigned_category: "False"

Where do the numbers come from? From patent US11109593B2.
